# Target: Calmodulin-1 (Homo sapiens) (UniProt P0DP23)
# Protocol notes: CALM1 binders on microarrays, EGTA buffer, profiling panel, biochemical, small-molecule microarray, Cy5-labelled CALM1 (AID 1111);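 further: labelled calmodulin applied in Tris saline Tween buffer holding calcium plus EGTA and DTT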
# Setup conditions: Cy5-CALM1 binding fluorescence, higher = more signal
Provide the recorded composite z-score for the entries that follow.
Output spec: single numeric token, no unit.

Item `COC(=O)[C@@]1(Cc2ccc(OC)cc2)[C@H]2c3cc(C(=O)N(C)C)n(Cc4cccc5ccccc45)c3C[C@H]2CN1C(=O)c1ccccc1` with Calmodulin-1 (Homo sapiens) (UniProt P0DP23) - composite z-score?
1.48

Note, next up: CCOc1cc(C(O)C2C=CC3C(=O)N(c4ccccc4)C(=O)C3N2Nc2ccccc2)ccc1O (configuration not stated)
0.0041

Same read-out for `NCCCCCNC(=O)[C@@H]1C[C@@H]2C(=O)NCC(=O)N2[C@@H]1c1ccc(O)cc1` ?
0.957

Moving on to `CCOC(=O)C[C@H]1[C@H](OC(=O)c2cc3ccccc3oc2=O)[C@@H](NC(=O)C2CCCCC2)c2cc(OCCCO)ccc2N1C(=O)c1ccccc1`
-0.105

What about `COCCOC(=O)N1C(=O)[C@@]2(c3cc(C#CC4=CCCCC4)ccc31)[C@H](C(=O)Nc1nc3ccccc3s1)[C@H]1C(=O)O[C@H](c3ccccc3)[C@H](c3ccccc3)N1[C@@H]2c1ccccc1OCCO` ?
0.738

And what about the molecule `CN(C)CCCNC(=O)[C@@]1(c2ccc([N+](=O)[O-])cc2)CC(=O)N(C2CCCCC2)[C@@H]1c1ccc(CO)cc1I` ?
-0.0828

Follow-up item: `C=C(/C(=C/C[C@@H](OC(C)=O)c1ccc(OCCO)cc1)c1cnc2ccccc2c1)C(C)C`
-0.196
